experiment: in vitro; details: African green monkey
CC50 listing for selected compounds.

Here's what some known entries look like.
Structure notation: O=C(NC(=O)c1ccsc1NC(=O)c1nc2cnccc2s1)OCC(F)(F)F
CC50: < 25 µg/mL
//
Structure notation: CC(C)OC(=O)NC(=O)c1ccsc1NC(=O)c1cc2cccc(F)c2s1
CC50: < 25 µg/mL
//
Structure notation: CCOC(=O)NC(=O)c1ccsc1NC(=O)c1cnn2ccccc12
CC50: 25 to 50 µg/mL

Please look at this compound and report its CC50: CC(C)OC(=O)NC(=O)c1ccsc1NC(=O)c1ccn2nccc2c1
< 25 µg/mL

Annotate the compound Cc1cc(COC(=O)NC(=O)c2ccsc2NC(=O)c2nc3cnccc3s2)ccn1 with its measured CC50.
25 to 50 µg/mL

// fetch CC50 given entry CCOC(=O)NC(=O)c1cc(F)sc1NC(=O)c1cnc2ccnn2c1
25 to 50 µg/mL

---

assay: in vitro; conditions: African green monkey
Attribute measured: CC50

Examples from the recorded data:
Compound: O=C(Nc1sccc1C(=O)N1CCN(c2ccccc2)CC1)c1nc2ccccc2s1 [Compound 258]
CC50: > 50 µg/mL
//
Compound: CCOC(=O)NC(=O)c1ccsc1NC(=O)c1nc2c(N(C)C)ccnc2s1 [Compound 268]
CC50: > 50 µg/mL
//
Compound: O=C(Nc1sccc1C(=O)OCCN1CCOCC1)c1nc2ccccc2s1 [Compound 291]
CC50: > 50 µg/mL
//
Compound: CCOC(=O)NC(=O)c1ccsc1NC(=O)c1ccc2cnccc2c1 [Compound 145]
CC50: > 50 µg/mL
//
Compound: CCOC(=O)NC(=O)c1ccsc1NC(=O)c1cc2cccnc2s1 [Compound 332]
CC50: > 50 µg/mL

Now consider the entry below.
Give the reported CC50 for this compound. O=C(NC(=O)c1ccsc1NC(=O)c1nc2cnccc2s1)OCc1ccc(F)cc1 [Compound 275]
25 to 50 µg/mL

---

test: in vitro; conditions: African green monkey
Measured CC50, listed per entry.

Consider the reported CC50 for these compounds:
Compound: CC(C)(OC(=O)NC(=O)c1ccsc1NC(=O)c1nc2ccccc2s1)C(F)(F)F
Attribute measured: CC50
Test value: 25 to 50 µg/mL

Compound: O=C(NC(=O)c1ccsc1NC(=O)c1nc2ccccc2s1)OC1CCCC1
Attribute measured: CC50
Test value: > 50 µg/mL

Compound: O=C(NC(=O)c1ccsc1NC(=O)c1nc2cnccc2s1)OCc1ccccc1C(F)(F)F
Attribute measured: CC50
Test value: < 25 µg/mL

Compound: CC(C)OC(=O)NC(=O)c1ccsc1NC(=O)c1c(F)c(F)c(F)c(F)c1F
Attribute measured: CC50
Test value: < 25 µg/mL

Compound: CCOC(=O)NC(=O)c1ccsc1NC(=O)c1nc2c(s1)CNCC2
Attribute measured: CC50
Test value: > 50 µg/mL

Compound: O=C(NC(=O)c1ccsc1NC(=O)c1nc2ccccc2s1)OC1COC1
Attribute measured: CC50
Test value: < 25 µg/mL

Compound: COC(=O)c1ccsc1NC(=O)c1nc2cnccc2s1
Attribute measured: CC50
Test value: 25 to 50 µg/mL

Compound: CC(C)OC(=O)NC(=O)c1ccsc1NC(=O)c1cc2ccccn2n1
Attribute measured: CC50
Test value: 25 to 50 µg/mL

Compound: CC(C)OC(=O)NC(=O)c1cc(F)sc1NC(=O)c1nc2ccccc2s1
Attribute measured: CC50
Test value: 25 to 50 µg/mL

Compound: CC(C)OC(=O)NC(=O)c1cc(F)sc1NC(=O)c1cnc2ccnn2c1
Attribute measured: CC50
Test value: 25 to 50 µg/mL

Identify CC50 associated with the compound COC(=O)NC(=O)c1ccsc1NC(=O)c1cnc2ccnn2c1
25 to 50 µg/mL

Fill in reported CC50 for this entry: CCOC(=O)NC(=O)c1ccsc1NC(=O)c1csc2c1CCCC2
< 25 µg/mL

Using the record for O=C(NC(=O)c1ccsc1NC(=O)c1cnc2ccnn2c1)OCc1ccccc1 , state its measured CC50.
25 to 50 µg/mL

# return recorded CC50 for entry CCC(OC(=O)NC(=O)c1ccsc1NC(=O)c1cnc2ccnn2c1)c1ccccc1 (stereo not drawn)
< 25 µg/mL

Item CCOC(=O)NC(=O)c1ccsc1NC(=O)c1ccc2c(c1)CCCC2 : provide CC50
> 50 µg/mL

Given the compound CCOC(=O)NC(=O)c1ccsc1NC(=O)c1nc2cccnc2s1 , write its reported CC50.
> 50 µg/mL

Please supply the value of reported CC50 for the item CC(C)OC(=O)NC(=O)c1ccsc1NC(=O)c1cc(=O)c2ccccc2o1
< 25 µg/mL

Specify CC50 for CCOC(=O)NC(=O)c1ccsc1NC(=O)c1nc2ccccc2o1 and stop.
< 25 µg/mL

Read the entry CCOC(=O)NC(=O)c1ccsc1NC(=O)c1cc2c(F)cccc2s1 and write its reported CC50.
< 25 µg/mL

Hello, please tell me recorded CC50 for this one: CCOC(=O)NC(=O)c1cc(F)sc1NC(=O)c1nc2ncccc2s1
< 25 µg/mL

---

test: in vitro; conditions: African green monkey
Attribute measured: CC50

Compound: CCOC(=O)NC(=O)c1ccsc1NC(=O)c1cn2ccc(C#N)cc2n1 [Compound 405]
Attribute measured: CC50
Test value: < 25 µg/mL
--
Compound: C=CCOC(=O)NC(=O)c1ccsc1NC(=O)c1cnc2ccnn2c1 [Compound 297]
Attribute measured: CC50
Test value: < 25 µg/mL
--
Compound: O=C(NC(=O)c1ccsc1NC(=O)c1nc2cccnc2s1)OCc1ccccc1C(F)(F)F [Compound 288]
Attribute measured: CC50
Test value: < 25 µg/mL
--
Compound: CCOC(=O)NC(=O)c1cc(CC(=O)O)sc1NC(=O)c1nc2cnccc2s1 [Compound 308]
Attribute measured: CC50
Test value: < 25 µg/mL
--
Compound: CCOC(=O)NC(=O)c1ccsc1NC(=O)C1COc2ccccc2O1 (stereo not shown) [Compound 92]
Attribute measured: CC50
Test value: 25 to 50 µg/mL
--
Compound: CC(C)OC(=O)NC(=O)c1ccsc1NC(=O)c1cc2ncccn2n1 [Compound 340]
Attribute measured: CC50
Test value: 25 to 50 µg/mL

Read the next record carefully.
Quick one: give measured CC50 for CCOC(=O)NC(=O)c1ccsc1NC(=O)c1nc2ccc(NC(=O)CN)cc2s1 [Compound 393]
< 25 µg/mL
